target: NAD(P)H dehydrogenase [quinone] 1 (Homo sapiens); experiment: Activity at human recombinant NQO1 assessed as initial rate of cytochrome c reduction during the first 0 to 30 s by spectrophotometry
measure_name: Activity (µmol/min/mg)

compound | measure_name | recorded_value
COC1=CC(=O)c2sc(C=O)cc2C1=O | Activity | 897
COC1=CC(=O)c2sc(CO)cc2C1=O | Activity | 927
COC1=CC(=O)c2c(c(CO)nn2C)C1=O | Activity | 247
COC1=CC(=O)c2oc(C)c(C(C)O)c2C1=O (stereo not drawn) | Activity | 585

(P) COC1=CC(=O)c2sc(COC(C)=O)cc2C1=O
(Q) COC1=CC(=O)c2sc(C)c(CO)c2C1=O
(R) COC(=O)c1cc2c(s1)C(=O)C=C(OC)C2=O
Kindly order the items shown according to Activity, from the highest value down. # output: labels, in the requested order
P, R, Q
(P: 900 µmol/min/mg, R: 555 µmol/min/mg, Q: 236 µmol/min/mg)

(A) CC1=CC(=O)c2ccccc2C1=O
(B) COC1=CC(=O)c2sc(CO)c(C)c2C1=O
(C) COC1=CC(=O)c2c(c(C)nn2C)C1=O
(D) COC1=CC(=O)c2onc(C)c2C1=O
Rank the items in ascending order with respect to Activity. # output: labels, in the requested order
C, D, B, A
(C: 55.3 µmol/min/mg, D: 290 µmol/min/mg, B: 468 µmol/min/mg, A: 1220 µmol/min/mg)

(A) COC1=CC(=O)c2sc(C)cc2C1=O
(B) COC1=CC(=O)c2oc(CO)c(C)c2C1=O
Between A and B , whose recorded Activity is greater? Identify your pick by its label.
B

###

molecular target: NAD(P)H dehydrogenase [quinone] 1 (Homo sapiens); assay: Activity at human recombinant NQO1 assessed as average rate of irreversible NADH oxidation after 30 to 40 mins by HPLC analysis
measure_name: Activity (µmol/min/mg)

(1) COC1=CC(=O)c2c(c(CO)nn2C)C1=O
(2) COC1=CC(=O)c2sc(COC(C)=O)cc2C1=O
Between 1 and 2 , whose recorded Activity is greater? Identify your pick by its label.
1
(1: 38.1 µmol/min/mg, 2: 24.5 µmol/min/mg)

(I) COC1=CC(=O)c2sc(C=O)cc2C1=O
(II) COC(=O)c1cc2c(s1)C(=O)C=C(OC)C2=O
(III) COC1=CC(=O)c2c(c(C)c(CO)n2C)C1=O
(IV) COC1=CC(=O)c2sc(C)cc2C1=O
Rank the items in ascending order with respect to Activity. # output: labels, in the requested order
III, IV, I, II

(1) COC1=CC(=O)c2onc(C)c2C1=O
(2) COC1=CC(=O)c2oc(CO)c(C)c2C1=O
Between 1 and 2 , whose recorded Activity is greater? Identify your pick by its label.
2
(2: 80.8 µmol/min/mg, 1: 27.6 µmol/min/mg)

(I) COC1=CC(=O)c2c(c(C)nn2C)C1=O
(II) COC1=CC(=O)c2oc(C)c(C(C)O)c2C1=O (configuration not stated)
Input pair: I , II . Output: entry with lower Activity. Identify your pick by its label.
I

(I) COC1=CC(=O)c2sc(CO)cc2C1=O
(II) COC1=CC(=O)c2c(c(CO)c(C)n2C)C1=O
Input pair: I , II . Output: entry with lower Activity. Identify your pick by its label.
II
(II: 1.25 µmol/min/mg, I: 63.8 µmol/min/mg)
